# Test system: MS2 coat protein
# assayComment: apparent Kd, MS2 coat protein; higher = weaker binding; RNA-MaP array
# conditionDescription: designed as: OFF switch for flavin mononucleotide; no ligand
Tick yes (1) if apparent Kd is 0.05 µM or greater. Tick no (0) if apparent Kd is less than 0.05 µM.

Answered examples (3):
>>> category("UCCUCGUUUACAUGAGGAUCACCCAUGUGCUCGUCUAAACAUUAGGAUAUCGACCCUCUGCGCAUCGAGAAGGAAUACGGCGAG")
"yes (1)"
>>> category("GGGAUCGGAGGAUAUCGGUGGUUUAACAUGAGGAUCACCCAUGUGAAUAAACAAGUGGAGCGAGAAGGCCGGCGCU")
"no (0)"
>>> category("UGAUACAUGAGGAUCACCCAUGUUGAUCCCGAGAAGUCCGUAAGAAGGACAGACACGAUGGAUCUGUAGGAUAUUACGACGGAC")
"yes (1)"

Prompt line: For this sequence, is measured apparent Kd 0.05 µM or higher? `ACUGCUGUAGGAUAUCAACGAAAUAACAUGAGGAUCACCCAUGUGGCAGUGAUCAGCAGUUGAGAAGGACAUGGCC`
Response line: no (0)

---

# Test system: MS2 coat protein
# assayComment: apparent Kd, MS2 coat protein; higher = weaker binding; RNA-MaP array; theophylline 2 mM where present
# conditionDescription: designed as: OFF switch for theophylline; no ligand
Below, each entry is listed alongside its reported apparent Kd.
Response body: numeric value in µM, unit text excluded.

Below: 6 sequences and their reported apparent Kd.
>>> measurednumber("ACAUGAGGGAUGGAUACCAGCGACAUGAGGAUCACCCAUGUAUGAGGAUCAGCCAUGUUAUGCCCUUGGCAGCCACGAACAUCAG")
0.0266
>>> measurednumber("ACGAACUGUAGUGAUACCAGACGUACAUGAGGAUCACCCAUGUUGUAAACAUGGUGAAUAGUCCCUUGGCAGCACAGUUAGUUCG")
0.182
>>> measurednumber("CGCUACGUAACUGAUACCAGUGUACUGACAUGAGGAUCACCCAUGUUGGGUUUUGUUGUACACCCUUGGCAGCAGAAUCGUAGCG")
0.0703
>>> measurednumber("CGGCCCUCACAUGAGGAUCACCCAUGUGAUACCAGCCUGGAAACAGGCCCUUGGCAGCACAGGUCAUCAAAAGAUGACCAAGCCG")
0.0125
>>> measurednumber("ACGUCUCGUUUACUCGUGGGUUAGCUCGAUACCAGUAUUCAAACUUACCCUUGGCAGCGACAUGAGGAUCACCCAUGUGCGAAGA")
0.0164
>>> measurednumber("ACGUCCAGGUUAAUCGUGGACAUGGUCGAUACCAGUAUUUUAAUCUACCCUUGGCAGCGACAUGAGGAUCACCCAUGUGCGAUGA")
0.0125

Prompt line: Endpoint output: apparent Kd of `GCACCAGGUACGGAUACCAGACUCUGCCGAUUGGGUGAACAUGAGGAUCACCCAUGUUAGGUCCCUUGGCAGCCGUACCUGGUGC` . Value?
Response line: 0.0283

---

# Test system: MS2 coat protein
# assayComment: apparent Kd, MS2 coat protein; higher = weaker binding; RNA-MaP array
# conditionDescription: ligand present: flavin mononucleotide; designed as: OFF switch for flavin mononucleotide
measuredParameter: apparent Kd (nM)
Provide the reading as a plain figure in nM.

>>> measurednumber("GGGACCACUCUUGGGCCGCUGACAUGAGGAUCACCCAUGUAUAGAAGGAGGGUGGCUAAUCACACCUAGGAUAUAUACAAGACU")
11
>>> measurednumber("ACCCUGUGAGGAUAUAUGCGGUUUGAACCAGAUCAGAAAUAAUAGAAGGCACAUGAGGAUCACCCAUGUUUCUC")
22.8
>>> measurednumber("CGCUAACAUGAGGAUCACCCAUGUGAGGAUAUUCGCGGCGGACCGGGCUUUGGCGCUCGAAGAAGGCACAACGG")
24.5
>>> measurednumber("ACAGAAAAUAGAGGAUAUACAAGAACAUGAGGAUCACCCAUGUAAUAACAAUAUGAUCGGUUCAAGAAGAAGGCUAAACAAAAU")
12.8
>>> measurednumber("AUAAUAACAUGAGGAUCACCCAUGUCCUCUUGGCGGCGGCUUAGAAGGUCGACUACUUUUCUUUCGAAGGAUAUAACCUGUUCU")
733
>>> measurednumber("AUACAAUCAGGAUAUACUAGGCGAUAACAGAUUAUGACGUCACAUGAGGAUCACCCAUGUAGAAGGGAUCAGGA")
53.1
>>> measurednumber("AGUGAGGUUCUAGGAUAUCUCCCUCGAGUGCAGCUACAUGAGGAUCACCCAUGUCAUGGGUGUCGAGAGAAGGAGAAGGGCUUA")
104
>>> measurednumber("AACGUCAACGUAAGGAUAUGCAGUAAGAGCGACAGGCAGAAGGUACAUGAGGAUCACCCAUGUUAACAGAACGG")
9.6
>>> measurednumber("AAAAUUGAAGGAUAUACAUGAGGAUCACCCAUGUGCAACAUAUUUGAAUGGCCUCACGGUAGAAGGUCAAAACG")
7.52
>>> measurednumber("UACGGUGCAGGAUAUCGAAUUUCAAACAUGAGGAUCACCCAUGUCUAAUAUGGCGACUAACGAGAAGGGCAGGAAG")
16

Prompt line: // query apparent Kd value for entry `UAACCAUGCAAAGGAUAUCCAAUACUAUGAGACGGAGAAGGUAGAAACAUGGAGAAUUCCUACAUGAGGAUCACCCAUGUUAGA`
Response line: 245

Prompt line: Also, `CACAUGAGGAUCACCCAUGUCGCGGUGUGACCGAUACUCGAAUAGGAUAUGCUUGACACUUCGUGGCAGAAGGAUUGAGGUUCG` please.
Response line: 54.9

Prompt line: Consider next the sequence `GACAUGAGGAUCACCCAUGUUAAAGAUCCCAGCAUGCAACUCAGAAGGCUAAACUGUGGAUAGAAAGAGGAUAUGAGUUUAUAC` in the same way.
Response line: 9.57

Prompt line: Same for `UGAUACAUGAGGAUCACCCAUGUUGAUCCCGAGAAGUCCGUAAGAAGGACAGACACGAUGGAUCUGUAGGAUAUUACGACGGAC`
Response line: 122

Prompt line: Same lookup for `GAUAGAUAUGUAAGGAUAUGUGACGCGCUUGAGAAACAGAAGGAACAUGAGGAUCACCCAUGUAGAUGUUGUGA` , please.
Response line: 9.94
